experiment: growth inhibition, single agents and combos, UWB1.289, cell-based, BGB or cisplatin combos, synergistic combos for chromothripsis tumors (AID 1671456); conditions: UWB1.289 ovarian carcinoma cells, measured here: inhibition with BGB combination, at 0.05 µM, stronger effect = higher value;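 further: cells exposed to compound for four days; 0% = vehicle DMSO and 100% = killing by high DMSO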
measurement type: inhibition (%)
Value expressed in %; do not type the unit.

Task: Please report the measured inhibition for NC(=O)c1cccc2cn(-c3ccc(C4CCCNC4)cc3)nc12 (stereo unspecified)
Output: 2.85

Task: Item CC1CNC(=O)NC1=O (stereo unspecified) : provide inhibition
Output: -40

Task: For the molecule `O=C1N=c2ccccc2=C1c1c(O)[nH]c2ccccc12` , report inhibition.
Output: -4.21

Task: Dear colleague, please send me the reported inhibition for NC(=O)c1cccc2[nH]c(-c3ccc(C4CCCN4)cc3F)nc12 (stereo unspecified) when you can.
Output: -4.89

Task: Identify measured inhibition corresponding to COc1cccc2c1C(=O)c1c(O)c3c(c(O)c1C2=O)CC(O)(C(C)=O)CC3OC1CC(N)C(O)C(C)O1 (stereo unspecified)
Output: 38.4

Task: Using known records, supply inhibition for O=C(CCSc1nc2ccccc2c(=O)[nH]1)NC1CCC(c2nnc(-c3ccccc3)o2)CC1 (stereo unspecified)
Output: -3.32

Task: Assign inhibition to the following record: Nc1ccn(C2CCC(CO)O2)c(=O)n1 (stereo unspecified)
Output: -29.4

Task: Output measured inhibition for this item: `Cc1ccc([N+](=O)[O-])cc1S(=O)(=O)N(C)/N=C\c1cnc2ccc(Br)cn12`
Output: -16.8

Task: Look up inhibition of CCC(Sc1nnc2c3ccccc3n(CC)c2n1)C(=O)Nc1ccccc1OC (stereo unspecified) and report it.
Output: -11.2

Task: Respond only with inhibition recorded for `CN(C)C(=S)NN=C(c1ccccn1)c1ccccn1`
Output: 90.6

Task: Give the value of inhibition reported for the following: CCC(C)C(=O)OC1CC(C)C=C2C=CC(C)C(CCC3CC(O)CC(=O)O3)C21 (stereo unspecified)
Output: -16.1

Task: Recall and state the measured inhibition for `Cc1cc(C#N)cc(C)c1Oc1nc(Nc2ccc(C#N)cc2)nc(N)c1Br` .
Output: -24.8

Task: Return reported inhibition. Input molecule: N#Cc1ccc(OC2CCC(NC(=O)CCSc3nc4ccccc4c(=O)[nH]3)CC2)cc1 (stereo unspecified)
Output: -10.8

Task: Specify measured inhibition for `C[C@@H]1COCCN1c1cc(C2(S(C)(=O)=O)CC2)nc(-c2cccc3[nH]ccc23)n1` .
Output: 6.56

Task: Answer with the recorded inhibition of `Cc1ccc(NC(=O)CCCCCC(=O)Nc2ccccc2N)cc1` only.
Output: -44.6

Task: Output measured inhibition for this item: `C[n+]1ccc(-c2c3nc(c(-c4cc[n+](C)cc4)c4ccc([nH]4)c(-c4cc[n+](C)cc4)c4nc(c(-c5cc[n+](C)cc5)c5ccc2[nH]5)C=C4)C=C3)cc1`
Output: -39.4

Task: Give reported inhibition value for O=c1[nH]cnc2c1ncn2C1CCC(CO)O1 (stereo unspecified)
Output: -32

Task: Given `C[C@@H]1O[C@@H](O[C@@H]2[C@@H](O)[C@H](OCCc3ccc(O)c(O)c3)O[C@H](CO)[C@H]2OC(=O)C=Cc2ccc(O)c(O)c2)[C@H](O)[C@H](O)[C@H]1O` , respond with its inhibition.
Output: -13.4

Task: Retrieve inhibition measured for `C[C@H](NC(=O)c1ccccc1N=Cc1c(O)ccc2ccccc12)c1ccccc1` and print it.
Output: 3.84

Task: Tell us which inhibition value is on record for `O=c1[nH]c(=S)[nH]c2nc(-c3ccccc3)c(-c3ccccc3)nc12`
Output: 69.6

Task: # return recorded inhibition for entry `O=C(CCCCCCC(=O)NO)NO`
Output: 12.4

Ref: PubChem BioAssay
